Kindly supply the reported protein stability index values for the records listed here.
B1: PDZK1 (parent)
chain: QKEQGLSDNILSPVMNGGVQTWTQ

# Variants of: B1
# protocol: protein stability index of a GFP-peptide fusion (GPS, HEK-293T) (PSI 1-6); higher = more stable;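 note: lentivirally expressed fusions sorted by FACS into six bins by GFP to DsRed ratio, PSI derived from sequencing read proportions per bin multiplied by bin number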
# run-parameters: c terminus: a fixed tail appended
Numbers only.

Use these answered entries as a reference point.
Look up protein stability index for this variant: `S7A`
2.51

Look up protein stability index for this variant: `G18C`
2.54

Look up protein stability index for this variant: `M15A`
1.84

Look up protein stability index for this variant: `N9A`
2.67

The following variants each have a reported value; give each one's protein stability index.
1. D8C
2. L11V
3. V19D
4. S7D
5. D8W
6. Q20T
7. G18L
8. Q24D

1.51
3.62
4.3
2.54
2.4
3
2.58
3.13

The following variants each have a reported value; give each one's protein stability index.
1. E3A
2. V19K
3. S7Y
4. S12F

1: 3.02; 2: 2.16; 3: 2.12; 4: 2.76
